The reported measurements were obtained from a melting point compilation (Tetko et al.; mined from patent text by program, amines drawn as free bases though some values may be those of a salt).

Recorded melting point by entry

Example entries begin here.
Task: Reported melting point for O=C(Nc1ccc(C(F)(F)F)nc1C1CCN(CC=Cc2ccc(Cl)cc2)CC1)c1ccnc(Cl)c1 : what is it?
Result: 134 to 135 °C

Task: Fill blank: measured melting point of the compound Cc1nc(C)c(Cl)c(NCc2nccc(SCCCSc3sccc3[N+](=O)[O-])c2C)n1 is ____.
Result: 174 to 180 °C

---
Task: Fill blank: measured melting point of the compound O=Cc1ccc2c(c1I)OCO2 is ____.
Result: 124 to 126 °C

---

EXPERIMENTAL ENDPOINT: melting point

// known answers, use as guide
Task: # melting point lookup, item COC(=O)COc1ccc(NC(=O)CCc2ccc(C#N)cc2)cc1
Result: 141 °C

Task: I would be grateful if you could share the reported melting point for CCC(CC)Oc1nc(C)nc2c1[nH]c(=O)n2-c1c(C)cc(C)cc1C .
Result: 159 to 160 °C

Let's switch to this compound now.
Task: melting point lookup needed for CCN1CCCC(NC(=O)c2ccccc2Nc2ccnc3c(C(F)(F)F)cccc23)C1 (stereo not given) , thanks.
Result: 212 to 213 °C

---

melting point values by entry

Task: Bench note: what melting point did Cc1oc(-c2ccccc2)nc1COc1ccc(CCCC2SC(=O)NC2=O)cc1C(F)(F)F (stereo not drawn) show?
Result: 154 to 155 °C

Task: Which melting point is listed for COc1cccc(C(O)C2CCN(CCc3ccc(F)cc3)CC2)c1OC (stereo not drawn) ?
Result: 114 to 116 °C

Task: Could you tell me which melting point is on file for O=C(O)C1(CC2CCCC2)CC1 ?
Result: 42 to 45 °C

Further cases:
Task: Please give the measured melting point for this compound: CCC1(CC)CC(=O)c2ccc(O)cc2O1
Result: 97 to 99 °C

Task: What value of melting point has been reported for the following compound? CC(C)(C)[N+]([O-])=Cc1cc(Cl)cc(Cl)c1O
Result: 103 °C

Task: Entry CCOC(=O)c1c(C(C)C)c(S(=O)(=O)c2ccc(OC)cc2)n2ccccc12 : reported melting point = ?
Result: 103 to 104 °C

Task: Value lookup for melting point; key = O=C1C[C@H](NC(=O)C(F)(F)F)C(=O)O1
Result: 116 to 118 °C

Task: Fill blank: measured melting point of the compound Cc1ccc(S(=O)(=O)Oc2cccnc2)cc1 is ____.
Result: 76 to 78 °C

Task: melting point for O=C(O)c1ccc(-c2nc(-c3cccc(Oc4ccccc4)c3)no2)cc1 ?
Result: 292 to 293 °C

Task: Which measured melting point value corresponds to CCOC(=O)C(=O)CCc1ccccc1 ?
Result: 126 to 127 °C

Task: Quick one: melting point for COc1ccccc1NC(=S)c1ccc(C(F)(F)F)cc1 ?
Result: 118 to 120 °C

Task: I am curious: what melting point value has been reported for CC(C(=O)c1ccc(F)cc1F)c1ncccn1 (stereo not drawn) ?
Result: 118 to 119 °C

Task: Which measured melting point value corresponds to Nc1c(F)c(-c2ccc(C(F)(F)F)nc2)nc(C=O)c1Cl ?
Result: 147 to 149 °C

---

EXPERIMENTAL ENDPOINT: melting point

Task: Item under review: Cc1sc2ccccc2c1Br . Reported melting point?
Result: 39 to 40 °C

Turning to the following compound.
Task: // query melting point value for entry CCCc1nc2ccccc2n1Cc1ccc(C2=C(C(=O)O)CCC2)cc1
Result: 224 to 226 °C

---

EXPERIMENTAL ENDPOINT: melting point

A selection of reference data follows.
Task: Query (compound): N#Cc1ncc(Sc2ccccc2)nc1C#N ; field requested: melting point
Result: 109 to 112 °C

Task: Need melting point, item CN(C)S(=O)(=O)N(C)c1cccc2cc(-c3nccs3)[nH]c12
Result: 123 °C

More entries:
Task: Endpoint output: melting point of CCc1nc(/C=C/c2cn(-c3ccccc3)nc2O)cs1 . Value?
Result: 222 to 224 °C

---

EXPERIMENTAL ENDPOINT: melting point

Use these answered entries as a reference point.
Task: Need melting point, item COc1cc2c(N)nc(N3CCN(c4nc5ccccc5s4)CC3)nc2c(OC)c1OC
Result: > 250 °C

Task: Look at this compound and give its reported melting point. CC(C)(C)c1cc(-c2cccs2)cc2c1OCC2(C)C
Result: 61 to 63 °C

Task: What value of measured melting point is listed for N[C@@]1(C(=O)O)C[C@H](NC(=O)Nc2ccc(Cl)cc2)[C@H]2[C@H](C(=O)O)[C@H]21 (relative stereo) ?
Result: > 250 °C

Task: May I ask what melting point has been recorded for Cc1c(-c2cc(Cl)cc(Cl)c2)ccc2nc(N)nc(N)c12 ?
Result: > 250 °C

Task: Quick one: melting point of COC(=O)CN(CC(=O)OC)c1cc(OCCCCCCCCCCCCOc2ccccc2)cc(OCCCOc2ccc(S(C)=O)cc2)c1 (stereo unspecified) ?
Result: 47 to 49 °C

Continuing:
Task: Give its melting point value. Item: Cc1oc(-c2ccccc2)nc1CCOc1ccc(C=C2SC(=O)NC2=O)cn1
Result: 195 to 196 °C

Task: I would be grateful if you could share the reported melting point for Cc1oc(-c2ccc(-c3ccccc3)cc2)nc1CCOc1ccc(OC(C)(C)C(=O)O)cc1 .
Result: 123 to 124 °C

Task: GET /values?readout=melting point&item= CCOC(=O)c1cc(=O)cc(-c2ccccc2O)o1
Result: 213 to 215 °C

Task: May I ask what melting point has been recorded for CN(C)C1CCCN(C(=O)c2ccc(N)cc2)c2ccccc21 (stereo unspecified) ?
Result: 120 to 122 °C

Task: Query: melting point; subject: O=C(CCl)Nc1ccc2[nH]ncc2c1
Result: 175 to 178 °C

Task: Quick one: melting point for CC(C)NCC1CCN(c2nc3c(cc2F)c(=O)c(C(=O)O)cn3C2CC2)C1 (stereo unspecified) ?
Result: 240 to 243 °C

---

Entries and their melting point values follow.

Worked examples, 8 compounds total:
Task: For the compound shown here, CCOC(=O)Nc1cc2c3ccccc3n(Cc3ccccc3)c2cn1 , give the reported melting point.
Result: 217 to 218 °C

Task: Give its melting point value. Item: COc1ccc(COC(=O)Nc2cc(-n3cccn3)nc(-c3ccco3)n2)cc1OC
Result: 148 °C

Task: May I ask what melting point has been recorded for COc1cc(O)ccc1/C=C/C(=O)CC(=O)CCc1ccc(O)cc1 ?
Result: 131 to 135 °C

Task: Entry under review: COc1ccc2[nH]c(C(C)C)c(/C=C/C(=O)c3ccncc3)c2c1 . Reported melting point?
Result: 252 to 253 °C

Task: For the compound COc1ccc(NC(C)=C2C(=O)OC(=O)C(C(C)=O)=C2O)cc1 , what melting point is on record?
Result: 212 to 214 °C

Task: What value of measured melting point is listed for O=C1CNC(c2cc(Br)cc(-c3ccsc3)c2)=NN1CC(F)(F)F ?
Result: 167 to 169 °C

Task: For the compound shown here, CCNc1nc(C)c(C(=O)OCC)c(NCCCN(C)C)c1[N+](=O)[O-] , give the reported melting point.
Result: < 20 °C

Task: If you can, please state the reported melting point value of Cc1cc(C(=O)N2Cc3cccn3Cc3ccccc32)ccc1C1=CCCc2ccccc21 .
Result: 108 °C

Further cases:
Task: # melting point lookup, item C=CCN(CC=C)c1nc(NC(=O)C=C(C)C)n2oc(=O)nc2n1
Result: 165 to 166 °C

Task: Name the recorded melting point for CCOc1cc(-c2cc(C(F)(F)F)n3ncc(-c4ccncc4)c3n2)ccc1C(F)(F)F .
Result: 251 °C

---

Property: melting point; scope: individual molecules

# count of solved cases: 3
Task: GET /values?readout=melting point&item= CCO[PH](=O)Cc1cc(Oc2ccc(C(F)(F)F)cc2Cl)ccc1[N+](=O)[O-] (stereo not given)
Result: 106 to 107 °C

Task: Which melting point value is on record for COc1cc2c(cc1Cl)C(O)(c1ccccc1Cl)C(=O)N2 (stereo not given) ?
Result: 237 to 240 °C

Task: May I ask what melting point has been recorded for CCN1C(=O)C(C(=O)Nc2cccc(C(=O)Nc3ccc(Br)cc3)c2)c2cc(C(C)=O)ccc21 (stereo not given) ?
Result: 117 to 120 °C

***
Task: Tell me the measured melting point of COCCc1nc2c(N)nc3c(c2n1CCCNS(C)(=O)=O)CCCC3 , please.
Result: 150 to 152 °C

Task: Reported melting point, molecule COc1ccc(C2=NN(C3CCN(C(=O)CCl)CC3)C(=O)[C@@H]3CC=CC[C@H]23)cc1OC : ____
Result: 104 to 106 °C

Task: Need melting point, item O=C(O)COc1ccc(-c2nc3cnccc3[nH]2)c(O)c1
Result: 235 °C
